Test system: NCI-60 cell lines
Assay type: cell-based, human
VALUE TYPE: Cell Line with which the peptide (and its tripeptide motif) is associated

// solved cases for Cell Line with which the peptide (and its tripeptide motif) is associated follow
substance=WVGSGSP result=Hop-92-Lung
substance=VARAVPC result=Hop-92-Lung
substance=GEHGLGA result=H23-Lung
substance=LLSASLV result=K-562-Leukemia
substance=RYSTLLR result=K-562-Leukemia

Exercise: Sample RGAVAFE — what was its Cell Line with which the peptide (and its tripeptide motif) is associated?
Key: SR Leukemia

Exercise: And for GRLYYYR ?
Key: RPMI-8226-Leukemia

----------
Tested on: NCI-60 cell lines
Format: cell-based, human
VALUE TYPE: Cell Line with which the peptide (and its tripeptide motif) is associated

Observe how each entry below is paired with its result.
substance=VFQRSSG result=A549-Lung
substance=SSGPRSS result=Hop-62-Lung
substance=QVLLRSF result=Hop-62-Lung
substance=ADIGAGG result=HL-60-Leukemia
substance=VRAAGRV result=Hop-62-Lung

Exercise: Find the measured Cell Line with which the peptide (and its tripeptide motif) is associated: item EGARASD , target or system NCI-60 cell lines.
Key: Hop-92-Lung

Exercise: Record: RAVGRVA
Key: HL-60-Leukemia

Exercise: # iterate: LSMLRSA
Key: H322-Lung

Exercise: Next up: TLVLGGS
Key: Hop-92-Lung

Exercise: Now consider SWGSGGS and answer again.
Key: Hop-92-Lung

Exercise: Same thing, different substance: GLRKAGF
Key: SR Leukemia

Exercise: Would you mind doing AVRGGRP as well?
Key: Hop-92-Lung

Exercise: Another: LVSSGSK
Key: HL-60-Leukemia

Exercise: // query: GAVLFRV
Key: Hop-62-Lung

Exercise: Subsequent entry: LLRGLEL
Key: HL-60-Leukemia

Exercise: And what about the substance SVGAVGG ?
Key: A549-Lung

Exercise: # iterate: GRGSFES
Key: SR Leukemia

Exercise: Proceed to SLTRAVR
Key: Hop-92-Lung

Exercise: TELVSWS , same question.
Key: H322-Lung

----------
Test system: NCI-60 cell lines
Type: cell-based, human
VALUE TYPE: Cell Line (NCI-60 cell line the peptide is associated with)

Below are worked cases with known answers.
substance=NEFLGRL subject_of_test="NCI-60 cell lines" result="HCT-116 Colon"
substance=GVLPVVT subject_of_test="NCI-60 cell lines" result="HCT-15 Colon"
substance=DLRRAGS subject_of_test="NCI-60 cell lines" result=SW620-Colon
substance=ATIPGGS subject_of_test="NCI-60 cell lines" result="LOX-IMVI Melanoma"

Field: next substance
Exercise: Query (substance): GRGVGTD ; field requested: Cell Line (NCI-60 cell line the peptide is associated with)
Key: HT-29 Colon

----------
System: NCI-60 cell lines
Format: cell-based, human
VALUE TYPE: Cell Line with which the peptide (and its tripeptide motif) is associated

Recorded results for 10 substances are shown here.
substance=FDARGGL result="CCRF-CEM Leukemia"
substance=SNARGPR result=K-562-Leukemia
substance=NYMGPSA result=A549-Lung
substance=GRLWSRV result=Hop-92-Lung
substance=VTGGRVD result=A549-Lung
substance=IGRLLPL result=HL-60-Leukemia
substance=VEYAAGR result="CCRF-CEM Leukemia"
substance=YNRSAGL result="CCRF-CEM Leukemia"
substance=RSSIAPS result=Molt-4-Leukemia
substance=MLASAGR result=HL-60-Leukemia

Exercise: So what's the measured Cell Line with which the peptide (and its tripeptide motif) is associated for this one? VLFSAGS
Key: K-562-Leukemia

Exercise: Same lookup for TTGSVIV , please.
Key: H23-Lung

Exercise: Proceed to DVSGRVP
Key: HL-60-Leukemia

----------
Test system: NCI-60 cell lines
Type: cell-based, human
VALUE TYPE: Cell Line (NCI-60 cell line the peptide is associated with)

substance=SGGDGSV result="SNB-75 CNS"
substance=IGAVSGW result="SNB-75 CNS"
substance=AHYTLRS result=COLO-205-Colon
substance=GRVTGGR result="HCT-15 Colon"
substance=GAVTGYP result="SF-268 CNS"
substance=LAGLVSG result="HT-29 Colon"

Exercise: Could you tell me which Cell Line (NCI-60 cell line the peptide is associated with) is on file for GSSRPSI ?
Key: HCT-15 Colon

Exercise: Next up: VGLRDWG
Key: SW620-Colon

Exercise: Please give the result for DGVSSDY too.
Key: COLO-205-Colon

Exercise: Try ASGLVVT next.
Key: SNB-75 CNS

Exercise: Now consider RGSVASA .
Key: HT-29 Colon

----------
Test system: NCI-60 cell lines
Type: cell-based, human
VALUE TYPE: Cell Line (NCI-60 cell line the peptide is associated with)

Known results for substances:
substance=VRGSRWR result="HT-29 Colon"
substance=DEGLRSR result="HCT-116 Colon"
substance=GPSWATV result="LOX-IMVI Melanoma"
substance=GWVAVSC result="LOX-IMVI Melanoma"
substance=IAASYRG result="LOX-IMVI Melanoma"
substance=RAAGRVG result="HCT-15 Colon"

Exercise: Value lookup for Cell Line (NCI-60 cell line the peptide is associated with); key = GLGAVGW
Key: HT-29 Colon

Exercise: Same for RKPGGGR
Key: HT-29 Colon

Exercise: Also AGGRWNL , if possible.
Key: HT-29 Colon

Exercise: Okay, and LRSDPRS ?
Key: HT-29 Colon

Exercise: EGSVDAH , same question.
Key: SW620-Colon

Exercise: Same lookup for LVYSGRL , please.
Key: SW620-Colon

Exercise: Also check LVSVWSR
Key: HCT-15 Colon

Exercise: And ARSSHRA ?
Key: HCT-116 Colon

Exercise: Do the same for YGSGGRG please
Key: HT-29 Colon

----------
Test system: NCI-60 cell lines
Format: cell-based, human
VALUE TYPE: Cell Line with which the peptide (and its tripeptide motif) is associated

Solved cases (5 shown):
substance=SRYWLRS subject_of_test="NCI-60 cell lines" result=H522-Lung
substance=WTKRGSV subject_of_test="NCI-60 cell lines" result=K-562-Leukemia
substance=AGVFAVS subject_of_test="NCI-60 cell lines" result=HL-60-Leukemia
substance=HVGLLRA subject_of_test="NCI-60 cell lines" result=Hop-62-Lung
substance=GVRTAGP subject_of_test="NCI-60 cell lines" result=A549-Lung

Exercise: API: value(readout= Cell Line with which the peptide (and its tripeptide motif) is associated, system= NCI-60 cell lines, query= SRFRVSI )
Key: CCRF-CEM Leukemia

Exercise: Here is the next substance: PNRRVSA
Key: Hop-92-Lung

Exercise: Further, for VWAGVLL ?
Key: Hop-62-Lung

----------
Tested on: NCI-60 cell lines
Format: cell-based, human
VALUE TYPE: Cell Line (NCI-60 cell line the peptide is associated with)

// known answers, use as guide
substance=VSRIGVR result="LOX-IMVI Melanoma"
substance=LERAVRT result="HT-29 Colon"
substance=YLGRRVS result=SW620-Colon
substance=WRLGAVG result=SW620-Colon
substance=WLDAAVK result="LOX-IMVI Melanoma"

# input for lookup
Exercise: What reported Cell Line (NCI-60 cell line the peptide is associated with) corresponds to GTLGGRV on NCI-60 cell lines?
Key: HT-29 Colon

----------
System: NCI-60 cell lines
Type: cell-based, human
VALUE TYPE: Cell Line with which the peptide (and its tripeptide motif) is associated

substance=DPRGLRV result=HL-60-Leukemia
substance=GGSSEFR result=Hop-92-Lung
substance=SVLGGRL result=EKVX-Lung
substance=RAAGGSR result=RPMI-8226-Leukemia
substance=LLRSAAP result=RPMI-8226-Leukemia

Exercise: Item NAASLPS has what recorded Cell Line with which the peptide (and its tripeptide motif) is associated?
Key: SR Leukemia

Exercise: // repeat for QDRVSRS and report
Key: Hop-92-Lung

Exercise: Try the substance ANGVLEL
Key: Molt-4-Leukemia

Exercise: Follow-up item: GRLRLTD
Key: HL-60-Leukemia

Exercise: Field entry: WRLLRRQ
Key: SR Leukemia

----------
System: NCI-60 cell lines
Format: cell-based, human
VALUE TYPE: Cell Line (NCI-60 cell line the peptide is associated with)

substance=FGGSGRG subject_of_test="NCI-60 cell lines" result="LOX-IMVI Melanoma"
substance=HGLVTHN subject_of_test="NCI-60 cell lines" result="MALME-3M Melanoma"
substance=GRSSGME subject_of_test="NCI-60 cell lines" result="HT-29 Colon"
substance=CPGSGII subject_of_test="NCI-60 cell lines" result="LOX-IMVI Melanoma"
substance=WSGVSRL subject_of_test="NCI-60 cell lines" result="HCT-15 Colon"
substance=EVLWGGR subject_of_test="NCI-60 cell lines" result="SF-268 CNS"
substance=YVRIGRV subject_of_test="NCI-60 cell lines" result="HCT-15 Colon"
substance=RGGRSPS subject_of_test="NCI-60 cell lines" result="HT-29 Colon"

Exercise: Given the entry GAGRGDR , report its measured Cell Line (NCI-60 cell line the peptide is associated with).
Key: SF-295 CNS

Exercise: Further, for GSVLGDY ?
Key: COLO-205-Colon

Exercise: Then this substance: RRLSYFH
Key: HT-29 Colon

Exercise: Same thing, different substance: LRVYGEG
Key: SNB-75 CNS

Exercise: And for GGMNGRL ?
Key: HT-29 Colon

Origin of values: patent US7781565B2
